Cited source for all entries: patent US20250179051A1

# Tested on: Amaranthus palmeri (AMAPA)
# experiment notes: Post-emergence herbicide glasshouse test
# Type: in vivo
# condition set: 250 g/ha, evaluated after 13 days, five-point scale
outcome measure: percentage damage caused to the plant, AMAPA

Q: Please give the measured percentage damage caused to the plant, AMAPA for this molecule: O=C(c1ccncc1)c1nc(C(F)(F)F)nc2cccc(Oc3ncc(Cl)cn3)c12 [Compound 1.036]
Ans: 3 (3=41-60%)

Q: Please give the measured percentage damage caused to the plant, AMAPA for this molecule: FC(F)(F)c1nc(CCC=NOCC2CC2)c2c(Oc3ncc(Cl)cn3)cccc2n1 [Compound 1.068]
Ans: 5 (5=81-100%)

Q: Please give the measured percentage damage caused to the plant, AMAPA for this molecule: O=C(c1ccc(Cl)cn1)c1nc(C(F)(F)F)nc2cccc(Oc3ncc(Cl)cn3)c12 [Compound 1.070]
Ans: 1 (1=0-20%)

Q: Please give the measured percentage damage caused to the plant, AMAPA for this molecule: FC(F)(F)c1nc(C2CC2)c2c(Oc3ncc(Cl)cn3)cccc2n1 [Compound 1.041]
Ans: 5 (5=81-100%)

Q: Please give the measured percentage damage caused to the plant, AMAPA for this molecule: FC(F)(F)c1nc(-c2ncccn2)c2c(Oc3ncc(Cl)cn3)cccc2n1 [Compound 1.069]
Ans: 1 (1=0-20%)
